Test system: HepG2
Assay: GSK_TCMDC: Percent inhibition of human HepG2 cell line. Test compounds present at 10uM.
Type: functional
Group membership follows Inhibition per the scheme bucket A (below 7%), bucket B (7% to below 20%), bucket C (20% or more)

COc1ccc2ncc(F)c([C@@H](O)CN3CCC(NCc4cc(C#N)c5c(c4)CCO5)CC3)c2n1 : bucket B
CCCC(C)Nc1nc(C)cc(N[C@@H](Cc2ccccc2)C(=O)NCCOc2ccccc2)n1.O=C(O)C(F)(F)F (some centres not stated) : bucket B
C[C@H](NC(=O)c1c(CN2CCC(N3CCCCC3=O)CC2)c(-c2cccs2)nc2ccccc12)C1CCCCC1 : bucket B
COc1cc(C(=O)N2CCOC(CCN3CCC4c5ccccc5CC43)(c3ccc(Cl)c(Cl)c3)C2)cc(OC)c1OC (configuration not stated) : bucket C
CCOC(=O)N1NC(=O)N(c2ccccc2)C1(c1ccccc1)c1ccccc1 : bucket A
Cc1[nH]c(C)c(-c2ccc(/C=C/c3ccccn3)cc2)c(=O)c1Cl : bucket A
O=C(NCc1ccccc1)c1ccc(C(=O)NCC2CNCCO2)cc1.O=C(O)C(F)(F)F (configuration not stated) : bucket A
COc1ccc2ncc(F)c(CCN3C4CCC3CC(NCc3cc5c(cn3)OCS5)C4)c2n1.Cl (configuration not stated) : bucket B
Cc1cc2c3c(N)nc(N)nc3ccc2n1C(C)C : bucket C
COc1ccc(-c2cccc(NC(=O)c3cccc(C#N)c3)c2)cc1CN(C)CCN(C)C.O=C(O)C(F)(F)F : bucket A
CCC(CC)CN1C(=O)C(c2ccccc2)(c2ccccc2)N=C1N.O=CO : bucket B
O=C(N[C@H]1CCN(Cc2ccc(OCCN3CCNCC3)c3ccccc23)C1)c1ccc(Cl)c(Cl)c1.O=C(O)C(F)(F)F : bucket C
COc1ccc(CCNc2nc(SCc3ccccc3Cl)nc3ccccc23)cc1OC : bucket C
CCc1cn2c3c(cc(C(=O)N[C@@H](Cc4cccc(F)c4)[C@H](O)CNC4CCOCC4)cc13)N(C)S(=O)(=O)CC2.O=CO : bucket A
O=C(NCCN1CCCC1)c1ccc(-c2cccc(-c3nc4cc(F)ccc4[nH]3)c2)cc1 : bucket C
N#Cc1ccc(N/C(=N\c2ccc(-c3ccccc3)cc2)NCc2cccnc2)c(O)c1 : bucket A
O=C(Nc1ccc(Br)cc1)N(CCN1CCOCC1)CC(O)COc1ccc(Cl)c(F)c1.O=C(O)C(F)(F)F (configuration not stated) : bucket A
CCOc1cc(C)ccc1C1CCN(CCN2CCC(CNC(=O)c3ccc(-c4ccc(C(F)(F)F)cc4)cc3)CC2)CC1 : bucket C
Cc1cnn(-c2cccc(C(=O)NC3CCC(CCN4CCc5ccc(C#N)cc5CC4)CC3)c2)c1.Cl (configuration not stated) : bucket C
N#CC(c1ccc(Cl)cc1)c1ccc2c(C(F)(F)F)cc(C(F)(F)F)nc2n1 (configuration not stated) : bucket C
COc1ccc2nccc([C@@H](O)CN3CCC(NCCOc4ccc(F)cc4[N+](=O)[O-])CC3)c2c1.O=C(O)C(=O)O : bucket B
Cc1cccc2nc(-c3ccc(-c4cccc(CNCCCNS(C)(=O)=O)c4)cc3)[nH]c12.O=C(O)C(F)(F)F : bucket A
COc1cccc(Nc2nc(N)c3ccccc3n2)c1.Cl : bucket B
CN(C)Cc1c(O)ccc2[nH]c(-c3cccc(F)c3)nc12 : bucket B
OCc1ccc(-c2cncc(Nc3ccc(F)c(Cl)c3)c2)cc1 : bucket A
COc1ccc(CN2CCCC(N3CC4(OC3=O)c3ccccc3-c3ccccc34)C2)c(O)c1 (configuration not stated) : bucket B
CN1CCN(CCCN(Cc2csc(-c3ccc(CNCc4ccccc4)cc3)n2)C(=O)Nc2ccc3ccccc3c2)CC1.O=C(O)C(F)(F)F : bucket B
O=C(Nc1ccc2c(c1)CCN2C1CCN(Cc2csc3ccccc23)C1)c1ccco1 (configuration not stated) : bucket A
COc1ccc2[nH]c(C(=O)Nc3ccc4[nH]c(-c5ccccc5)nc4c3)cc2c1.O=C(O)C(F)(F)F : bucket C
O=C(O)C(F)(F)F.c1cc(CN2CCN(c3ccncc3)CC2)cc(-c2ccc(-c3nc4ccccc4[nH]3)cc2)c1 : bucket C
Cc1nc2ccccn2c1C1(O)C(=O)Nc2c(Cl)cc(Cl)cc21 (configuration not stated) : bucket A
O=C(Nc1ccc(Cn2ncc(N3CCCNCC3)c(Cl)c2=O)cc1)Nc1cc(C(F)(F)F)cc(C(F)(F)F)c1.O=C(O)C(F)(F)F : bucket C
Cl.N#Cc1ccc2c(c1)CCN(CCC1CCC(NC(=O)Nc3ccncc3)CC1)C2 (configuration not stated) : bucket A
Cc1cc(NCCCCCCCCNc2cc(C)nc3ccccc23)c2ccccc2n1.Cl : bucket C
